Attribution: paper PMC11494662

Endpoint: MIC. System: S. aureus ATCC 43300. Items follow.

# example entries with known answers
molecule smiles: C[C@@H]1CC[C@@]2(OC1)O[C@H]1C[C@H]3[C@@H]4CC=C5C[C@@H](O[C@@H]6C=C[C@H](O)[C@@H](CO)O6)CC[C@]5(C)[C@H]4CC[C@]3(C)[C@H]1[C@@H]2C
result: > 256 µg/mL
//
molecule smiles: C[C@@H]1CC[C@@]2(OC1)O[C@H]1C[C@H]3[C@@H]4CC=C5C[C@@H](O[C@@H]6CC[C@@H](O)CO6)CC[C@]5(C)[C@H]4CC[C@]3(C)[C@H]1[C@@H]2C
result: > 256 µg/mL

From here, focus on the item given below.
Q: Data request, read-out MIC, for "C[C@@H]1CC[C@@]2(OC1)O[C@H]1C[C@H]3[C@@H]4CC=C5C[C@@H](O[C@@H]6C=C[C@H](O)CO6)CC[C@]5(C)[C@H]4CC[C@]3(C)[C@H]1[C@@H]2C"
Result: > 256 µg/mL
